Target: AC1 (Homo sapiens)
Construct: expressed in transfected cells
Sequence (Q08828 whole entry): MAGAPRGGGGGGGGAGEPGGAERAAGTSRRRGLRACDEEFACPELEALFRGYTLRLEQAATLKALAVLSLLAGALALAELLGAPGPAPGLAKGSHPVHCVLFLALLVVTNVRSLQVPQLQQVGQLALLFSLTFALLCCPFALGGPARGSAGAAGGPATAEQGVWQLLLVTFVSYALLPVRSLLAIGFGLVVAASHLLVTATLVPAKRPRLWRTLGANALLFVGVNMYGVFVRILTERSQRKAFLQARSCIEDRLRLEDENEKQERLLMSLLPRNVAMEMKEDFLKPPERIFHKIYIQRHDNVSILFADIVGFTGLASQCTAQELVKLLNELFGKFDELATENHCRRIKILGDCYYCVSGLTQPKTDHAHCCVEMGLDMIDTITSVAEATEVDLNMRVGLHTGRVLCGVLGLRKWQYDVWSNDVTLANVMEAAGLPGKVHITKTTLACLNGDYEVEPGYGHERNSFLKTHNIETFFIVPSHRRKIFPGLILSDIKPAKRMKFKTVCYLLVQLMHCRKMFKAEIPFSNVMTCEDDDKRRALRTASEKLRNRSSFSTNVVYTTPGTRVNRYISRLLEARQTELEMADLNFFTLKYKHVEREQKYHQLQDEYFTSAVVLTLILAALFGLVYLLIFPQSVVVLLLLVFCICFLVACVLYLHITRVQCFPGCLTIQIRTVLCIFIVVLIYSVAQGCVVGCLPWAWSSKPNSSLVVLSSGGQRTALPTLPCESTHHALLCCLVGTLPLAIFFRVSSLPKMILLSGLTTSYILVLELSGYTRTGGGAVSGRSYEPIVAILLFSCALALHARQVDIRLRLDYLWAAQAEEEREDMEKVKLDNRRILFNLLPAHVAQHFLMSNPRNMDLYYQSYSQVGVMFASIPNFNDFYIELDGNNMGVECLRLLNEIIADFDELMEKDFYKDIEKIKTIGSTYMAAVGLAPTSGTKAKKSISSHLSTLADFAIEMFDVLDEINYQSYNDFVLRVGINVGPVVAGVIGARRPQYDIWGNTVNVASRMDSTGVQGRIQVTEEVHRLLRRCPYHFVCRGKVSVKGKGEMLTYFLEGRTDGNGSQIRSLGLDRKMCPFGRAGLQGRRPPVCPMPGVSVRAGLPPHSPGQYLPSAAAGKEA
Assay: cAMP accumulation assay, AC1-HEK Δ3/6 KO cells
Format: cell-based
Details: initial examination, 10,000 cells per well, 3 μM A23187, 1 h RT; read-out: AC1 IC50 ± SEM
pIC50: −log10 of the molar value.
READOUT: pIC50

CCc1cc(C(c2cccs2)N2CCN(C)CC2)c(NC(=O)c2ccco2)s1 (stereo not drawn) [Compound 15] | 5.31
Cn1cc(C(=O)Nc2ccc(Cl)cc2Cl)c2[nH]c(=O)n(-c3ccc(Cl)cc3)c(=O)c21 [Compound 21] | 5.06
O=S(=O)(Nc1ccc2c(c1)N(S(=O)(=O)c1ccc(F)cc1)CCC2)c1cccc(F)c1 [Compound 18] | 5.17
CCc1oc2ccccc2c1C(=O)c1cc(Br)c(O)c(Br)c1 [Compound 12, Benzbromarone] | 5.39

[a] CNC(=O)C1=C(Nc2ccc(N(C)C)cc2)c2ccccc2S1(=O)=O [Compound 20]
[b] CC(=O)Oc1c(Sc2ccc(Cl)cc2)c(C)nn1C(C)(C)C [Compound 13]
Prompt line: Compare a and b and name the one whose reported pIC50 is smaller. Your answer should be the label of the entry you select.
Response line: a
(a: 4.18, b: 4.51)

Data provenance is paper PMC9486168.
